Provenance of the data: patent US5821038A

Test system: yCM61 (Δpdr1, Δpdr5, Δsnq2, Δerg6)
Assay: Growth inhibition (sensitivity to cytotoxic products) as measure of permeability, strain yCM61 (Example 6)
Type: cell-based, Saccharomyces cerevisiae
Details: Saccharomyces cerevisiae; Example 6, strain yCM61 (Δpdr1, Δpdr5, Δsnq2, Δerg6); YNB minimum medium, 28° C., 48 hours, OD 700 nm; read-out: EC50
assay.readout: EC50
Provide the measurement as a number trailed by its unit.

> print(dat)
                                chem.smiles  result.value
1  CO[C@@H]1[C@@H](OC(N)=O)[C@@H](O)[C@H](Oc2ccc3c(O)c(NC(=O)c4ccc(O)c(CC=C(C)C)c4)c(=O)oc3c2C)OC1(C)C          9 µM

input: Provide value of EC50 for this record tested with yCM61 (Δpdr1, Δpdr5, Δsnq2, Δerg6): `CC[C@H](C)C(=O)O[C@H]1C[C@@H](C)C=C2C=C[C@H](C)[C@H](CC[C@@H]3C[C@@H](O)CC(=O)O3)[C@H]21`
output: 3.8 µM

###

System: yCM57 (Δpdr1, Δerg6)
Experiment: Growth inhibition (sensitivity to cytotoxic products) as measure of permeability, strain yCM57
Format: cell-based, Saccharomyces cerevisiae
Conditions: Saccharomyces cerevisiae, 48 h, read-out: EC50
assay.readout: IC50

input: I'd like to know its IC50. The compound in question is C[C@@H]1C[C@@H]([C@H](O)CC2CC(=O)NC(=O)C2)C(=O)[C@@H](C)C1 [Cycloheximide]
output: 200 nM
